System: LOX IMVI melanoma
assay.summary: NCI-60 one-dose screen, 48 h (100 = growth as untreated, 0 = no growth, -100 = all killed)
test.parameters: 10 µM
The panel holds about 83,000 compounds, 20% with a hit somewhere; the sample as a whole holds those more often.
Measured growth determines class: lower bin = under -50%, middle bin = from -50% up to 70%, upper bin = 70% and over

Problem: Band of COc1cc(/C=C/[N+](=O)[O-])cc(Br)c1OC ?
Result: lower bin

Problem: Hello team, could you let me know which band the following molecule falls into: CN(C)CC1(N)C(=O)NC(=O)NC1=O
Result: upper bin

Problem: // bin(item) where item = N#CCc1ccccc1
Result: upper bin

Problem: Record C/C1=C\[C@H](C)C[C@H](C)OC(=O)C[C@H](c2ccc(O)cc2)NC(=O)[C@@H](Cc2c(Br)[nH]c3ccccc23)N(C)C(=O)[C@H](C)NC(=O)[C@@H](C)C1 — which class?
Result: middle bin

Problem: Looking at NNc1ccccc1 , which class would you pick?
Result: middle bin

Problem: Consider COc1cc(/C=C/[N+](=O)[O-])cc(OC)c1OC . To which growth class does it belong?
Result: lower bin

Problem: The entry to classify is COc1cc([C@@H]2c3cc4c(c(O)c3C[C@H]3COC(=O)[C@@H]32)OCO4)cc(OC)c1OC ; which class holds it?
Result: middle bin

Problem: Band for the recorded growth of COc1cc([N+](=O)[O-])c2ncccc2c1[N+](=O)[O-] ?
Result: middle bin

Problem: Class label required: O=C(CBr)Nc1ccc(Cl)cc1
Result: lower bin

* * *

Please respond with reported growth for every item in the list.
Test system: SK-MEL-5 melanoma
assay.summary: NCI-60 one-dose screen, 48 h (100 = growth as untreated, 0 = no growth, -100 = all killed)
test.parameters: 10 µM
This is part of a sample that, as a whole, favours compounds with a hit. Of some 83,000 tested, about 20% had one in any assay.
Answers are plain numbers, in %.

CS(=N)(=O)CCC(N)C(=O)O (stereo unspecified): 110

For every item in the list below, what is its measured growth?
1. O=[N+]([O-])/C=C/c1ccc([N+](=O)[O-])cc1
2. COc1cc([C@@H]2c3cc4c(c(O)c3C[C@H]3COC(=O)[C@@H]32)OCO4)cc(OC)c1OC
3. C[C@@H]1C[C@@H]([C@H](O)CC2CC(=O)NC(=O)C2)C(=O)[C@@H](C)C1
4. COc1ccccc1[As]=[As]c1ccccc1OC (stereo unspecified)
5. [O-][n+]1ccccc1S
6. COC12C(COC(N)=O)C3=C(C(=O)C(C)=C(N)C3=O)N1CC1C2N1C (stereo unspecified)
7. COc1cc(/C=C/[N+](=O)[O-])cc(Br)c1OC
8. CC(=O)[O][Hg][c]1c(C)c(C)cc(C)c1C

Result:
1. 97.9
2. -42.8
3. 0.54
4. -99.3
5. 48.9
6. 11.6
7. 24.5
8. -57.5

Batch: growth for all items listed.
1. CC(C)C1(NC(=O)C2CC3c4cccc5[nH]cc(c45)CC3N(C)C2)OC2(O)C3CCCN3C(=O)C(Cc3ccccc3)N2C1=O (stereo unspecified)
2. CCCCCCCC[N+]12CN3CN(CN(C3)C1)C2

Result:
1. 89.8
2. 98

Where do these numbers come from? They come from PubChem BioAssay (NCI).
